method_notes: The drug is tested on Bacteroides xylanisolvens strain: DSM18836 for biotransformation. The drug concentrations were measured before and after a 12-h incubation by liquid-chromatography-coupled mass spectrometry (LC–MS)
study_conditions: 2 µM
attribute_measured: Bacterial Biotransformation

// worked examples, Bacterial Biotransformation included
>  <compound>
COc1ccc(CCN(C)CCCC(C#N)(c2ccc(OC)c(OC)c2)C(C)C)cc1OC (centres undefined)

>  <value_reported>
Compound metabolized

$$$$
>  <compound>
c1ccc([C@H]2CN3CCSC3=N2)cc1 [LEVAMISOLE]

>  <value_reported>
Compound metabolized

$$$$
>  <compound>
CC1=C(CC(=O)O)c2cc(F)ccc2/C1=C\c1ccc([S+](C)[O-])cc1 (centres undefined)

>  <value_reported>
Compound NOT metabolized

$$$$
>  <compound>
O=C(O)c1cc(/N=N/c2ccc(S(=O)(=O)Nc3ccccn3)cc2)ccc1O [SULFASALAZINE]

>  <value_reported>
Compound metabolized

$$$$
>  <compound>
CN(C)CCOC(C)(c1ccccc1)c1ccccn1.O=C(O)CCC(=O)O (centres undefined) [DOXYLAMINE SUCCINATE]

>  <value_reported>
Compound NOT metabolized

$$$$

In plain terms, O=C(NC(Cc1cc(=O)[nH]c2ccccc12)C(=O)O)c1ccc(Cl)cc1 (centres undefined) [REBAMIPIDE] has a documented Bacterial Biotransformation of Compound metabolized

In plain terms, Cc1ccc(NC(=O)c2ccc(CN3CCN(C)CC3)cc2)cc1Nc1nccc(-c2cccnc2)n1 [IMATINIB] has a documented Bacterial Biotransformation of Compound metabolized

In plain terms, O=C1[C@H](CC[C@H](O)c2ccc(F)cc2)[C@@H](c2ccc(O)cc2)N1c1ccc(F)cc1 [EZETIMIBE] has a documented Bacterial Biotransformation of Compound NOT metabolized

In plain terms, Cc1nc(-c2ccc(OCC(C)C)c(C#N)c2)sc1C(=O)O [FEBUXOSTAT] has a documented Bacterial Biotransformation of Compound NOT metabolized

In plain terms, CC(C)(C)NCC(O)c1cc(Cl)c(N)c(Cl)c1 (centres undefined) [CLENBUTEROL] has a documented Bacterial Biotransformation of Compound NOT metabolized

In plain terms, CCOC(=O)[C@H](CCc1ccccc1)N[C@H]1CCc2ccccc2N(CC(=O)O)C1=O [BENAZEPRIL] has a documented Bacterial Biotransformation of Compound metabolized

---

method_notes: The drug is tested on Providencia rettgeri strain: DSM1131 for biotransformation. The drug concentrations were measured before and after a 12-h incubation by liquid-chromatography-coupled mass spectrometry (LC–MS)
Assay type: ADME
Set-up: dose 2 uM, timepoint 0 vs 12 hours
study_conditions: 2 µM

>  <compound>
CCN(C(C)=O)c1cccc(-c2ccnc3c(C#N)cnn23)c1

>  <Bacterial Biotransformation>
Compound NOT metabolized

$$$$
>  <compound>
CCC(C)n1ncn(-c2ccc(N3CCN(c4ccc(OCC5COC(Cn6cncn6)(c6ccc(Cl)cc6Cl)O5)cc4)CC3)cc2)c1=O (centres undefined)

>  <Bacterial Biotransformation>
Compound NOT metabolized

$$$$
>  <compound>
CN(C)CCOC(c1ccc(Cl)cc1)c1ccccn1.O=C(O)/C=C\C(=O)O (centres undefined) [CARBINOXAMINE MALEATE]

>  <Bacterial Biotransformation>
Compound NOT metabolized

$$$$

---

method_notes: The drug is tested on Bifidobacterium longum subsp. Infantis strain: CCUG52486 for biotransformation. The drug concentrations were measured before and after a 12-h incubation by liquid-chromatography-coupled mass spectrometry (LC–MS)
study_conditions: 2 µM
attribute_measured: Bacterial Biotransformation

// worked examples, Bacterial Biotransformation included
>  <molecule>
CCCCC1=NC2(CCCC2)C(=O)N1Cc1ccc(-c2ccccc2-c2nnn[nH]2)cc1 [IRBESARTAN]

>  <attribute_measured>
Bacterial Biotransformation

>  <value_reported>
Compound metabolized

$$$$
>  <molecule>
CCN(CC)CCNC(=O)c1cc(Cl)c(N)cc1OC [METOCLOPRAMIDE]

>  <attribute_measured>
Bacterial Biotransformation

>  <value_reported>
Compound NOT metabolized

$$$$
>  <molecule>
OCCOCCN1CCN(C2=Nc3ccccc3Sc3ccccc32)CC1 [QUETIAPINE]

>  <attribute_measured>
Bacterial Biotransformation

>  <value_reported>
Compound NOT metabolized

$$$$
>  <molecule>
CN1CCc2c(c3ccccc3n2Cc2ccccc2)C1.CN1CCc2c(c3ccccc3n2Cc2ccccc2)C1.O=S(=O)(O)c1cccc2c(S(=O)(=O)O)cccc12

>  <attribute_measured>
Bacterial Biotransformation

>  <value_reported>
Compound NOT metabolized

$$$$
>  <molecule>
CC(C)(C)NCC(O)COc1cccc2c1CC(O)C(O)C2 (centres undefined) [NADOLOL]

>  <attribute_measured>
Bacterial Biotransformation

>  <value_reported>
Compound NOT metabolized

$$$$

In plain terms, O=C(CCCN1CCC(O)(c2ccc(Cl)cc2)CC1)c1ccc(F)cc1 [HALOPERIDOL] has a documented Bacterial Biotransformation of Compound NOT metabolized

In plain terms, Nc1c2c(nc3ccccc13)CCCC2 [TACRINE] has a documented Bacterial Biotransformation of Compound NOT metabolized

In plain terms, CC(C)c1nc(CN(C)C(=O)N[C@H](C(=O)N[C@@H](Cc2ccccc2)C[C@H](O)[C@H](Cc2ccccc2)NC(=O)OCc2cncs2)C(C)C)cs1 [RITONAVIR] has a documented Bacterial Biotransformation of Compound NOT metabolized

In plain terms, CN1C[C@H](C(=O)N[C@]2(C)O[C@@]3(O)[C@@H]4CCCN4C(=O)[C@H](Cc4ccccc4)N3C2=O)C=C2c3cccc4[nH]cc(c34)C[C@H]21.CN1C[C@H](C(=O)N[C@]2(C)O[C@@]3(O)[C@@H]4CCCN4C(=O)[C@H](Cc4ccccc4)N3C2=O)C=C2c3cccc4[nH]cc(c34)C[C@H]21.O=C(O)C(O)C(O)C(=O)O [ERGOTAMINE TARTRATE] has a documented Bacterial Biotransformation of Compound metabolized

In plain terms, CC(=O)OCC(=O)[C@@]12N=C(C)O[C@@H]1C[C@H]1[C@@H]3CCC4=CC(=O)C=C[C@]4(C)[C@H]3[C@@H](O)C[C@@]12C [DEFLAZACORT] has a documented Bacterial Biotransformation of Compound metabolized

In plain terms, COc1ccccc1N1CCN(CC(O)COc2cccc3ccccc23)CC1 (centres undefined) [NAFTOPIDIL] has a documented Bacterial Biotransformation of Compound NOT metabolized

In plain terms, COc1ccnc(C[S+]([O-])c2nc3ccc(OC(F)F)cc3[nH]2)c1OC (centres undefined) [PANTOPRAZOLE] has a documented Bacterial Biotransformation of Compound metabolized

In plain terms, COC(=O)[C@H]1[C@H]2C[C@@H]3c4[nH]c5cc(OC)ccc5c4CCN3C[C@H]2C[C@@H](OC(=O)c2cc(OC)c(OC)c(OC)c2)[C@@H]1OC [RESERPINE] has a documented Bacterial Biotransformation of Compound NOT metabolized

In plain terms, C[C@@H](c1ncncc1F)[C@](O)(Cn1cncn1)c1ccc(F)cc1F [VORICONAZOLE] has a documented Bacterial Biotransformation of Compound NOT metabolized
